# System: Plasmodium falciparum
# assay explanation: Antimalarial activity against Plasmodium falciparum W2 assessed as plasmodial LDH activity after 72 hrs
# Format: functional, organism-based
# assay context: Plasmodium falciparum, W2, 72 h; read-out: IC50
measurement type: pIC50
// pIC50 here means minus log10 of the molar concentration (mol/L)

Answered examples (4):
>>> df
                                   compound  measurement_type  reported_measurement
0  Cc1ccc(C2OOC(c3ccc(/C=N\N)cc3)OO2)cc1 (stereo unspecified)             pIC50                  5.90
1  Cc1ccc(C2OOC(c3ccc(/C=N\c4ccc(Cl)cc4)cc3)OO2)cc1 (stereo unspecified)             pIC50                  5.84
2  Cc1ccc(C2OOC(c3ccc(CNc4ccccc4Cl)cc3)OO2)cc1 (stereo unspecified)             pIC50                  5.56
3  Cc1ccc(C2OOC(c3ccc(CO)cc3)OO2)cc1 (stereo unspecified)             pIC50                  5.62

Moving on to the next compound.
What measured pIC50 goes with Cc1ccc(C2OOC(c3ccc(CNc4cccc(O)c4)cc3)OO2)cc1 (stereo unspecified) ? 5.40
